All values here come from patent US6358885B1.

System: arrowhead
Assay: Test D paddy water application plant response rating 0 to 100
Type: in vivo, Sagittaria spp.
Settings: Rate 64 g/ha, 0 to 100 scale, approx. 21 days
The following compounds are listed with their measured Arrowhead plant response rating values.
Output: the number by itself.

Examples from the recorded data:
CC(C)N1C(=O)COc2cc(F)c(-c3nn4c(c3Cl)CCCC4)cc21: 100
Fc1cc(Cl)c(OCCCl)cc1-c1nn2c(c1Cl)CCCC2: 0

Query for arrowhead: what Arrowhead plant response rating does the record show for COCN1C(=O)COc2cc(F)c(-c3nn4c(c3Cl)CCCC4)cc21 ?
30

# value lookup — system arrowhead, readout Arrowhead plant response rating, item C#CCN1C(=O)COc2cc(F)c(-c3nn4c(c3Cl)CCCC4)cc21
100
